The measurements presented in this section are drawn from patent US6143875A.

target: DNase α; test: DNase (endonuclease) activity assay, HeLa S3 nuclei as substrate (Assay 1); details: increasing ZnCl2 in pH 5.6 buffer, 3 mM MgCl2; read-out: Inhibition by Zn2+: IC50
Result Type: IC50

Read off the recorded IC50 for [Cl-].[Cl-].[Zn+2]
≥ 1000 µM

====

target: DNase γ (Rattus norvegicus); assay: DNase (endonuclease) activity assay, HeLa S3 nuclei as substrate (Assay 1); type: biochemical; conditions: increasing ZnCl2 in 50 mM MOPS-NaOH (pH 7.2), 3 mM CaCl2, 3 mM MgCl2; read-out: Inhibition by Zn2+: IC50
Sequence (O89107 26-310): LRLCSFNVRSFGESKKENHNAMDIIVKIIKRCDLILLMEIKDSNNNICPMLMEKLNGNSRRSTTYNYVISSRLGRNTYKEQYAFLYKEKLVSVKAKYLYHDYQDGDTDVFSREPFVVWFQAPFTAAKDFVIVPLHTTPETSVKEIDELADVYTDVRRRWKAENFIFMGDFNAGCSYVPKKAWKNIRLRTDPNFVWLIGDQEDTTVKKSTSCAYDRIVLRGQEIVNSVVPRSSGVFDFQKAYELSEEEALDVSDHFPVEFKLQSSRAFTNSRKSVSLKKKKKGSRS
Result Type: pIC50
Numbers only, as −log10 of the molar value.

Read off the recorded pIC50 for [Cl-].[Cl-].[Zn+2]
4.40

====

target: DNase β; assay: DNase (endonuclease) activity assay, HeLa S3 nuclei as substrate (Assay 1); conditions: increasing ZnCl2 in pH 5.6 buffer, 3 mM MgCl2; read-out: Inhibition by Zn2+: IC50
Result Type: IC50

Read off the recorded IC50 for [Cl-].[Cl-].[Zn+2]
≥ 1000 µM
